Overview of recorded pest or weed control at 200 ppm for various molecules
Tested on: drug-sensitive strain of Cercospora beticola
Conditions: Cercospora beticola, in Beta vulgaris, topical, 240 h, read-out: Prevention value when inoculated with drug-sensitive strain

molecule	pest or weed control at 200 ppm
CC(C)OC(=O)Nc1cccc(Cl)c1 [Chlorpropham, isopropyl N-(3-chlorophenyl)carbamate]	0%
C#CC(C)OC(=O)Nc1cccc(Cl)c1 (stereo not drawn)	100%
CCCCNC(=O)n1c(NC(=O)OC)nc2ccccc21	100%
CCOc1ccc(NC(=O)OC(C)C)cc1CC	0%
O=C(Nc1cccc(Cl)c1)OCC#CCCl	0%

Record CC(C)OC(=O)Nc1ccccc1 [Propham, isopropyl N-phenylcarbamate] , field pest or weed control at 200 ppm: 0%

Record `COC(=O)NC(=S)Nc1ccccc1NC(=S)NC(=O)OC` , field pest or weed control at 200 ppm: 100%

Record COC(=O)Nc1nc2ccccc2[nH]1 [C, Methyl benzimidazol-2-ylcarbamate] , field pest or weed control at 200 ppm: 100%

Record `CCOc1ccc(NC(=O)OC(C)C)cc1COC` , field pest or weed control at 200 ppm: 0%
